assay-name: Volume of distribution in mouse at 0.5 mg/kg, iv and 1 mg/kg, po
Type: ADME, organism-based
run-conditions: in vivo
Here the recorded Vd is given for each entry.
experimental-readout: Vd (L/kg)

chemical_string=Cc1cc(C2CCN(C(=O)[C@@H]3CN(C(C)(C)C)C[C@H]3c3ccc(F)cc3F)CC2)n(-c2ccc(Cl)c(Cl)c2)n1 experimental_readout=Vd result_number=11
chemical_string=Cc1cc(C2CCN(C(=O)[C@@H]3CN(C(C)(C)C)C[C@H]3c3ccc(F)cc3F)CC2)n(-c2ccc(C)c(Cl)c2)n1 experimental_readout=Vd result_number=24
chemical_string=Cc1cc(C2CCN(C(=O)[C@@H]3CN(C(C)(C)C)C[C@H]3c3ccc(F)cc3F)CC2)n(-c2ccc(Cl)cc2C)n1 experimental_readout=Vd result_number=17
chemical_string=Cc1cc(C2CCN(C(=O)[C@@H]3CN(C(C)(C)C)C[C@H]3c3ccc(F)cc3F)CC2)n(-c2ccc(Cl)cc2F)n1 experimental_readout=Vd result_number=16
chemical_string=Cc1cc(C2CCN(C(=O)[C@@H]3CN(C(C)(C)C)C[C@H]3c3ccc(F)cc3F)CC2)n(-c2ccc(F)c(Cl)c2)n1 experimental_readout=Vd result_number=19
chemical_string=Cc1nc(C2CCN(C(=O)[C@@H]3CN(C(C)(C)C)C[C@H]3c3ccc(F)cc3F)CC2)n(-c2ccc(Cl)cc2)n1 experimental_readout=Vd result_number=14
chemical_string=Cc1nc(C2CCN(C(=O)[C@H]3CN(C(C)(C)C)C[C@@H]3c3ccc(F)cc3F)CC2)n(-c2ccc(Cl)c(C)c2)n1 experimental_readout=Vd result_number=20

###

assay-name: Half life in mouse at 0.5 mg/kg, iv and 1 mg/kg, po
Assay type: ADME, organism-based
run-conditions: in vivo
experimental-readout: half-life (h)

chemical_string=CC(C)(C)N1C[C@@H](C(=O)N2CCC(c3nnnn3-c3ccc(Cl)cc3)CC2)[C@H](c2ccc(F)cc2F)C1 unit_spec=h result_number=1.8
chemical_string=Cc1nc(C2CCN(C(=O)[C@@H]3CN(C(C)(C)C)C[C@H]3c3ccc(F)cc3F)CC2)n(-c2ccc(Cl)cc2)n1 unit_spec=h result_number=1.9
chemical_string=Cc1cc(C2CCN(C(=O)[C@@H]3CN(C(C)(C)C)C[C@H]3c3ccc(F)cc3F)CC2)n(-c2ccc(Cl)c(Cl)c2)n1 unit_spec=h result_number=2.7

###

Here the recorded remaining at 0.5 h is given for each entry.
assay-name: Metabolic stability in human liver microsomes after 30 mins by LC/MS analysis
Type: ADME, Microsome
run-conditions: read-out: Stability
experimental-readout: remaining at 0.5 h

chemical_string=Cc1nc(C2CCN(C(=O)[C@@H]3CNC[C@H]3c3ccc(F)cc3F)CC2)n(-c2cc(Cl)ccc2Cl)n1 experimental_readout="remaining at 0.5 h" result=58%
chemical_string=Cc1cc(C2CCN(C(=O)[C@@H]3CN(C(C)(C)C)C[C@H]3c3ccc(F)cc3F)CC2)n(-c2ccc(Cl)c(Cl)c2)n1 experimental_readout="remaining at 0.5 h" result=45%
chemical_string=Cc1nc(C2CCN(C(=O)[C@@H]3CN(C(C)(C)C)C[C@H]3c3ccc(F)cc3F)CC2)n(-c2ccc(Cl)cc2)n1 experimental_readout="remaining at 0.5 h" result=35%
chemical_string=Cc1nc(C2CCN(C(=O)[C@@H]3CNC[C@H]3c3ccc(F)cc3F)CC2)n(-c2ccc(Cl)c(Cl)c2)n1 experimental_readout="remaining at 0.5 h" result=59%
chemical_string=Cc1cc(C2CCN(C(=O)[C@@H]3CN(C(C)(C)C)C[C@H]3c3ccc(F)cc3F)CC2)n(-c2cc(Cl)ccc2F)n1 experimental_readout="remaining at 0.5 h" result=34%
chemical_string=Cc1cc(C2CCN(C(=O)[C@@H]3CN(C(C)(C)C)C[C@H]3c3ccc(F)cc3F)CC2)n(-c2ccc(C)c(Cl)c2)n1 experimental_readout="remaining at 0.5 h" result="< 1%"

###

Here the recorded fraction unbound is given for each entry.
assay-name: Plasma protein binding in 10% mouse plasma assessed as percentage unbound
Assay type: ADME, cell-free
experimental-readout: fraction unbound

chemical_string=Cc1cc(C2CCN(C(=O)[C@@H]3CN(C(C)(C)C)C[C@H]3c3ccc(F)cc3F)CC2)n(-c2cc(Cl)ccc2F)n1 result_number=0.09
chemical_string=CC(C)(C)N1C[C@@H](C(=O)N2CCC(c3ccnn3-c3ccc(F)c(Cl)c3)CC2)[C@H](c2ccc(F)cc2F)C1 result_number=0.16
chemical_string=Cc1cc(C2CCN(C(=O)[C@@H]3CN(C(C)(C)C)C[C@H]3c3ccc(F)cc3F)CC2)n(-c2ccc(C)c(Cl)c2)n1 result_number=0.04
chemical_string=Cc1cc(C2CCN(C(=O)[C@@H]3CN(C(C)(C)C)C[C@H]3c3ccc(F)cc3F)CC2)n(-c2ccc(F)c(F)c2)n1 result_number=0.16
chemical_string=Cc1cc(C2CCN(C(=O)[C@@H]3CN(C(C)(C)C)C[C@H]3c3ccc(F)cc3F)CC2)n(-c2ccc(Cl)cc2F)n1 result_number=0.21
chemical_string=Cc1cc(C2CCN(C(=O)[C@@H]3CN(C(C)(C)C)C[C@H]3c3ccc(F)cc3F)CC2)n(-c2ccc(Cl)c(C)c2)n1 result_number=0.06
chemical_string=Cc1cc(C2CCN(C(=O)[C@@H]3CN(C(C)(C)C)C[C@H]3c3ccc(F)cc3F)CC2)n(-c2ccc(F)c(Cl)c2)n1 result_number=0.16

###

assay-name: Volume of distribution in mouse at 0.5 mg/kg, iv and 1 mg/kg, po
Assay type: ADME, organism-based
run-conditions: in vivo
experimental-readout: Vd

chemical_string=CC(C)(C)N1C[C@@H](C(=O)N2CCC(c3ccnn3-c3ccc(F)c(Cl)c3)CC2)[C@H](c2ccc(F)cc2F)C1 result="22 L/kg"
chemical_string=Cc1cc(C2CCN(C(=O)[C@@H]3CN(C(C)(C)C)C[C@H]3c3ccc(F)cc3F)CC2)n(-c2ccc(F)cc2F)n1 result="14 L/kg"
chemical_string=Cc1cc(C2CCN(C(=O)[C@@H]3CN(C(C)(C)C)C[C@H]3c3ccc(F)cc3F)CC2)n(-c2ccc(Cl)cc2Cl)n1 result="16 L/kg"
